# Method Summary: Pharmacokinetics study, subcutaneous apixaban injection (Embodiment 4)
# Assay type: in vivo, humans
# Measurement Conditions: human, plasma, sc, 2.5 mg, plasma drug concentration of apixaban, subject C-01; Time 3 h; 1 mL of 2.5 mg/mL apixaban injection subcutaneously
Measurement Kind: concentration at 3 h (µg/mL)
Respond numerically; units are µg/mL and should not be typed.

Item COc1ccc(-n2nc(C(N)=O)c3c2C(=O)N(c2ccc(N4CCCCC4=O)cc2)CC3)cc1 has what recorded concentration at 3 h?
0.0621

----------
# Method Summary: Pharmacokinetics study, subcutaneous apixaban injection (Embodiment 4)
# Type: in vivo, humans
# Measurement Conditions: human, plasma, sc, 2.5 mg, plasma drug concentration of apixaban, subject C-03; Time 0 h; 1 mL of 2.5 mg/mL apixaban injection subcutaneously
Measurement Kind: concentration at 0 h

Item COc1ccc(-n2nc(C(N)=O)c3c2C(=O)N(c2ccc(N4CCCCC4=O)cc2)CC3)cc1 has what recorded concentration at 0 h?
0 ng/mL

----------
# Method Summary: Pharmacokinetics study, subcutaneous apixaban injection (Embodiment 4)
# Type: in vivo, humans
# Measurement Conditions: human, plasma, sc, 2.5 mg, plasma drug concentration of apixaban, subject C-01; Time 0.5 h; 1 mL of 2.5 mg/mL apixaban injection subcutaneously
Measurement Kind: concentration at 0.5 h (ng/mL)
Respond numerically; units are ng/mL and should not be typed.

Item COc1ccc(-n2nc(C(N)=O)c3c2C(=O)N(c2ccc(N4CCCCC4=O)cc2)CC3)cc1 has what recorded concentration at 0.5 h?
18.2

----------
# Method Summary: Pharmacokinetics study, subcutaneous apixaban injection (Embodiment 4)
# Format: in vivo, humans
# Measurement Conditions: human, plasma, sc, 2.5 mg, plasma drug concentration of apixaban, subject C-01; Time 4 h; 1 mL of 2.5 mg/mL apixaban injection subcutaneously
Measurement Kind: concentration at 4 h (ng/mL)
Respond numerically; units are ng/mL and should not be typed.

Item COc1ccc(-n2nc(C(N)=O)c3c2C(=O)N(c2ccc(N4CCCCC4=O)cc2)CC3)cc1 [apixaban, Apixaban] has what recorded concentration at 4 h?
68.8

----------
# Method Summary: Pharmacokinetics study, subcutaneous apixaban injection (Embodiment 4)
# Type: in vivo, humans
# Measurement Conditions: human, plasma, sc, 2.5 mg, plasma drug concentration of apixaban, subject C-02; Time 0.5 h; 1 mL of 2.5 mg/mL apixaban injection subcutaneously
Measurement Kind: concentration at 0.5 h (ng/mL)
Respond numerically; units are ng/mL and should not be typed.

Item COc1ccc(-n2nc(C(N)=O)c3c2C(=O)N(c2ccc(N4CCCCC4=O)cc2)CC3)cc1 has what recorded concentration at 0.5 h?
14.3

----------
# Method Summary: Pharmacokinetics study, subcutaneous apixaban injection (Embodiment 4)
# Type: in vivo, humans
# Measurement Conditions: human, plasma, sc, 2.5 mg, plasma drug concentration of apixaban, subject C-03; Time 10 h; 1 mL of 2.5 mg/mL apixaban injection subcutaneously
Measurement Kind: concentration at 10 h

Item COc1ccc(-n2nc(C(N)=O)c3c2C(=O)N(c2ccc(N4CCCCC4=O)cc2)CC3)cc1 has what recorded concentration at 10 h?
30.1 ng/mL

----------
# Method Summary: Pharmacokinetics study, subcutaneous apixaban injection (Embodiment 4)
# Type: in vivo, humans
# Measurement Conditions: human, plasma, sc, 2.5 mg, plasma drug concentration of apixaban, subject C-03; Time 16 h; 1 mL of 2.5 mg/mL apixaban injection subcutaneously
Measurement Kind: concentration at 16 h (ng/mL)
Respond numerically; units are ng/mL and should not be typed.

Item COc1ccc(-n2nc(C(N)=O)c3c2C(=O)N(c2ccc(N4CCCCC4=O)cc2)CC3)cc1 [apixaban, Apixaban] has what recorded concentration at 16 h?
21.6
